Exercise: state measured % Inhibition VL for each of the compounds provided.
- System: velvetleaf (Abutilon theophrasti)
- METHOD: Example 24, Procedure II: Herbicide No. 1 + co-herbicides Nos. 4, 6, 7, 12 with Antidote Nos. 15 and 17-21
- Format: in vivo
- STUDY CONDITIONS: Herb. No. 1 0.14 Kg/ha + Co-Herb. No. 7 0.28 Kg/ha + antidote 2.24 Kg/ha
Numbers only, in %.

Known % Inhibition VL results, listed for orientation:
compound="COC(=O)COC(c1ccccc1)c1ccccc1 [compound 20]" quantitative_result=90
compound="O=C(O)COC(c1ccccc1)c1ccccc1 [compound 19]" quantitative_result=90
compound="O=C(O)COC(c1ccccc1)c1ccccc1 [compound 18]" quantitative_result=95

Hey, quick one: what's % Inhibition VL for each of these?
1. CCSC(=O)COC(c1ccccc1)c1ccccc1 [compound 21]
2. CC1(C)OC(c2ccco2)CN1C(=O)C(Cl)Cl (stereo not drawn) [compound 15]
3. CC1COc2ccccc2N1C(=O)C(Cl)Cl (stereo not drawn) [compound 17]

[90, 95, 95]

###

- Test system: Giant foxtail (Setaria fabergi)
- METHOD: Example 24, Procedure II: Herbicide No. 1 + co-herbicides Nos. 4, 6, 7, 12 with Antidote Nos. 15 and 17-21
- Type: in vivo
- STUDY CONDITIONS: Herb. No. 1 0.07 Kg/ha + Co-Herb. No. 4 1.12 Kg/ha + antidote 2.24 Kg/ha
PARAMETER MEASURED: % Inhibition GFT (%)
Numbers only, in %.

Known % Inhibition GFT results, listed for orientation:
compound="CC1COc2ccccc2N1C(=O)C(Cl)Cl (stereo not drawn)" test_system="Giant foxtail (Setaria fabergi)" quantitative_result=55
compound=COC(=O)COC(c1ccccc1)c1ccccc1 test_system="Giant foxtail (Setaria fabergi)" quantitative_result=65
compound="CC1(C)OC(c2ccco2)CN1C(=O)C(Cl)Cl (stereo not drawn)" test_system="Giant foxtail (Setaria fabergi)" quantitative_result=40
compound=CCSC(=O)COC(c1ccccc1)c1ccccc1 test_system="Giant foxtail (Setaria fabergi)" quantitative_result=65
compound="O=C(O)COC(c1ccccc1)c1ccccc1 [compound 19]" test_system="Giant foxtail (Setaria fabergi)" quantitative_result=40

Below: the item to evaluate.
Write down the reported % Inhibition GFT (system: Giant foxtail (Setaria fabergi)) of O=C(O)COC(c1ccccc1)c1ccccc1 [compound 18]
65

###

Exercise: state measured % Injury BYG for each of the molecules provided.
- Test system: barnyardgrass (Echinochloa crusgalli)
- METHOD: Example 8, Procedure II: Herbicide No. 1 + butachlor (No. 9) with antidotes
- Type: in vivo
- STUDY CONDITIONS: Herbicide No.1 0.56 + No.9 2.24 kg/ha + antidote 2.24 kg/ha
Your answer should be a number followed by the unit of measure.

molecule="CC1(C)OC(c2ccco2)CN1C(=O)C(Cl)Cl (centres unmarked)" parameter_measured="% Injury BYG" result=95%
molecule=O=C(C(Cl)Cl)N1CCOC12CCCCC2 parameter_measured="% Injury BYG" result=99%
molecule=O=C1OC(=O)c2cccc3cccc1c23 parameter_measured="% Injury BYG" result=99%

Hey, quick one: what's % Injury BYG for each of these?
1. CC1(C(Cl)Cl)OCCO1
2. C=CCN(CC=C)C(=O)C(Cl)Cl

1: 99%; 2: 98%

###

- System: corn
- METHOD: Example 21, Procedure II: Herbicide No. 1 + SUTAN PLUS (butylate + antidote) with antidotes
- Format: in vivo
- STUDY CONDITIONS: Herbicide No.1 0.56 kg/ha + SUTAN + 8.96 kg/ha; antidote 2.24 kg/ha
PARAMETER MEASURED: % Injury Corn (%)
Answers are plain numbers, in %.

molecule="O=C(C(Cl)Cl)N1CCOC12CCCCC2 [compound 7]" quantitative_result=5

Hey, quick one: what's % Injury Corn for each of these?
1. C=CCN(CC=C)C(=O)C(Cl)Cl [compound 1]
2. CC1(C(Cl)Cl)OCCO1 [compound 13]
3. CC1(C)OC(c2ccco2)CN1C(=O)C(Cl)Cl (centres unmarked) [compound 15]
4. O=C1OC(=O)c2cccc3cccc1c23 [compound 2]

1. 15
2. 0
3. 25
4. 10

###

- System: corn
- METHOD: Example 23, Procedure II: Antidote Nos. 15 and 17-21 against Herbicide No. 1, 13 days after application
- Type: in vivo
- STUDY CONDITIONS: Table 23A; Herb. No. 1 1.12 Kg/Ha + antidote 2.24 Kg/ha; 13 days after application
# T = % Inhibition Corn below 20% (exclusive); F = % Inhibition Corn at/above 20%

molecule="CC1COc2ccccc2N1C(=O)C(Cl)Cl (stereo not drawn)" test_system=corn category_label=F
molecule=CCSC(=O)COC(c1ccccc1)c1ccccc1 test_system=corn category_label=F
molecule="O=C(O)COC(c1ccccc1)c1ccccc1 [compound 19]" test_system=corn category_label=T

API: query returns whether the molecule falls strictly under 20% in % Inhibition Corn. Query: O=C(O)COC(c1ccccc1)c1ccccc1 [compound 18]
T

API: query returns whether the molecule falls strictly under 20% in % Inhibition Corn. Query: COC(=O)COC(c1ccccc1)c1ccccc1
T

###

Exercise: state measured % Inhibition VL for each of the compounds provided.
- Tested on: velvetleaf (Abutilon theophrasti)
- METHOD: Example 24, Procedure II: Herbicide No. 1 + co-herbicides Nos. 4, 6, 7, 12 with Antidote Nos. 15 and 17-21
- Assay type: in vivo
- STUDY CONDITIONS: Herb. No. 1 0.56 Kg/ha + Co-Herb. No. 6 0.14 Kg/ha + antidote 2.24 Kg/ha
Your answer should be a number followed by the unit of measure.

compound="O=C(O)COC(c1ccccc1)c1ccccc1 [compound 19]" result=99%
compound=COC(=O)COC(c1ccccc1)c1ccccc1 result=95%
compound=CCSC(=O)COC(c1ccccc1)c1ccccc1 result=98%
compound="O=C(O)COC(c1ccccc1)c1ccccc1 [compound 18]" result=98%

Hey, quick one: what's % Inhibition VL for each of these?
1. CC1(C)OC(c2ccco2)CN1C(=O)C(Cl)Cl (stereo not drawn)
2. CC1COc2ccccc2N1C(=O)C(Cl)Cl (stereo not drawn)

1. 99%
2. 98%

###

- Test system: Giant foxtail (Setaria fabergi)
- METHOD: Example 23, Procedure II: Antidote Nos. 15 and 17-21 against Herbicide No. 1, 13 days after application
- Type: in vivo
- STUDY CONDITIONS: Table 23A, Herb. No. 1 1.12 Kg/Ha + antidote 2.24 Kg/ha
PARAMETER MEASURED: % Inhibition GFT
Your answer should be a number followed by the unit of measure.

compound="O=C(O)COC(c1ccccc1)c1ccccc1 [compound 18]" test_system="Giant foxtail (Setaria fabergi)" result=70%
compound="CC1COc2ccccc2N1C(=O)C(Cl)Cl (stereo not drawn)" test_system="Giant foxtail (Setaria fabergi)" result=70%
compound="O=C(O)COC(c1ccccc1)c1ccccc1 [compound 19]" test_system="Giant foxtail (Setaria fabergi)" result=70%

Hey, quick one: what's % Inhibition GFT for each of these?
1. CCSC(=O)COC(c1ccccc1)c1ccccc1
2. COC(=O)COC(c1ccccc1)c1ccccc1
3. CC1(C)OC(c2ccco2)CN1C(=O)C(Cl)Cl (stereo not drawn)

70%
65%
75%

###

- Tested on: corn
- METHOD: Example 24, Procedure II: Herbicide No. 1 + co-herbicides Nos. 4, 6, 7, 12 with Antidote Nos. 15 and 17-21
- Assay type: in vivo
- STUDY CONDITIONS: Herb. No. 1 0.14 Kg/ha + Co-Herb. No. 6 0.14 Kg/ha + antidote 2.24 Kg/ha
PARAMETER MEASURED: % Inhibition Corn (%)
One number for each entry, in %.

compound="CC1COc2ccccc2N1C(=O)C(Cl)Cl (stereo not drawn)" parameter_measured="% Inhibition Corn" quantitative_result=0
compound="O=C(O)COC(c1ccccc1)c1ccccc1 [compound 19]" parameter_measured="% Inhibition Corn" quantitative_result=0
compound="CC1(C)OC(c2ccco2)CN1C(=O)C(Cl)Cl (stereo not drawn)" parameter_measured="% Inhibition Corn" quantitative_result=5

Hey, quick one: what's % Inhibition Corn for each of these?
1. COC(=O)COC(c1ccccc1)c1ccccc1
2. O=C(O)COC(c1ccccc1)c1ccccc1 [compound 18]
3. CCSC(=O)COC(c1ccccc1)c1ccccc1

1. 5
2. 0
3. 5

###

- Test system: velvetleaf (Abutilon theophrasti)
- METHOD: Example 23, Procedure II: Antidote Nos. 15 and 17-21 against Herbicide No. 1, 13 days after application
- Format: in vivo
- STUDY CONDITIONS: Table 23A, Herb. No. 1 0.28 Kg/Ha + antidote 2.24 Kg/ha
Exercise: state measured % Inhibition VL for each of the molecules provided.
Your answer should be a number followed by the unit of measure.

Known % Inhibition VL results, listed for orientation:
molecule="O=C(O)COC(c1ccccc1)c1ccccc1 [compound 18]" result=95%
molecule="O=C(O)COC(c1ccccc1)c1ccccc1 [compound 19]" result=85%
molecule="CC1COc2ccccc2N1C(=O)C(Cl)Cl (stereo not drawn) [compound 17]" result=85%

Hey, quick one: what's % Inhibition VL for each of these?
1. CC1(C)OC(c2ccco2)CN1C(=O)C(Cl)Cl (stereo not drawn) [compound 15]
2. CCSC(=O)COC(c1ccccc1)c1ccccc1 [compound 21]
3. COC(=O)COC(c1ccccc1)c1ccccc1 [compound 20]

["90%", "85%", "90%"]
